- assay: Half life in male Sprague-Dawley rat at 10 mg/kg, po measured up to 24 hrs by LC/MS-MS analysis
- Format: ADME, organism-based
- recorded-conditions: in vivo
readout-type: half-life (h)
Write the answer as a number in h, unit excluded.

Ask: Reported half-life, compound Fc1ccc(/C=N/Nc2nc(-c3ccc(C(F)(F)F)cc3)cs2)cc1F : ____
Result: 1.27

====

- Test system: A549
- assay: Antiproliferative activity against human A549 cells assessed as inhibition of cell growth incubated for 48 hrs by MTT assay
- Format: functional, cell-based
- recorded-conditions: A549, 48 h
pIC50: −log10 of the molar value.
// class 0 strictly below 5 in pIC50; class 1 otherwise

Ask: Determine whether this compound has pIC50 no lower than 5: COc1cc(/C=N/Nc2nc(-c3ccccc3)cs2)cc(Br)c1OC
Result: class 0

Ask: Determine whether this compound has pIC50 no lower than 5: COc1cc(/C=N/Nc2nc(-c3cc(C(F)(F)F)cc(C(F)(F)F)c3)cs2)c(Br)c(Br)c1OC
Result: class 0

Ask: Determine whether this compound has pIC50 no lower than 5: Fc1ccc(/C=N/Nc2nc(-c3cccc(Br)c3)cs2)cc1F
Result: class 0

Ask: Determine whether this compound has pIC50 no lower than 5: Fc1ccc(/C=N/Nc2nc(-c3cc(C(F)(F)F)cc(C(F)(F)F)c3)cs2)cc1F
Result: class 1

Ask: Determine whether this compound has pIC50 no lower than 5: O=C(O)/C(Cc1ccccc1[N+](=O)[O-])=N\Nc1nc(-c2ccc(Cl)c(Cl)c2)cs1
Result: class 0

Ask: Determine whether this compound has pIC50 no lower than 5: Fc1ccc(/C=N/Nc2nc(-c3ccccc3)cs2)cc1F
Result: class 0

Ask: Determine whether this compound has pIC50 no lower than 5: Fc1ccc(/C=N/Nc2nc(-c3ccc(C(F)(F)F)cc3)cs2)cc1F
Result: class 1

Ask: Determine whether this compound has pIC50 no lower than 5: COc1cc(/C=N/Nc2nc(-c3ccc(F)c(F)c3)cs2)cc(Br)c1OC
Result: class 0

Ask: Determine whether this compound has pIC50 no lower than 5: COc1cc(/C=N/Nc2nc(-c3ccc(C(F)(F)F)cc3)cs2)cc(Br)c1OC
Result: class 0

Ask: Determine whether this compound has pIC50 no lower than 5: COc1cc(/C=N/Nc2nc(-c3cccc(Br)c3)cs2)cc(Br)c1OC
Result: class 0

Ask: Determine whether this compound has pIC50 no lower than 5: COc1cc(/C=N/Nc2nc(-c3ccc(Br)cc3)cs2)cc(Br)c1OC
Result: class 0
